Each entry below carries its recorded cAMP EC50 (1.0% HSA).
system-under-test: human glucagon receptor (human, UniProt P47871 26-477)
measurement-protocol: cell-based or functional assay
quantity-measured: cAMP EC50 (1.0% HSA)

# binder, value-observed
rows = [
    ("YXEGTXTSDXSIXLDXIAQXEFIKXLIEGGKSSGAPPPS (Aib2, αMeF(2F)6, 4Pal10, αMeL13, Orn16, Aib20, αMeY25; acylated K24, K31 (groups as in name); C-terminal amide)", "> 9.95 µM"),
    ("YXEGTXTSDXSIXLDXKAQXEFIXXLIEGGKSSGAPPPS (Aib2, αMeF(2F)6, 4Pal10, αMeL13, Orn16, Aib20, D-Glu24, αMeY25; acylated K17, K31 (groups as in name); C-terminal amide)", "> 9.95 µM"),
    ("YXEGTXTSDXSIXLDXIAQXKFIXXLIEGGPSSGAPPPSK (Aib2, αMeF(2F)6, 4Pal10, αMeL13, Orn16, Aib20, D-Glu24, αMeY25; acylated K21, K40 (groups as in name); C-terminal amide)", "> 9.95 µM"),
]
